FYI, the data here is from paper PMC6742641.

# Test system: SH-SY5Y cells
# Assay Protocol: Cell proliferation (anti-proliferation) assay, MTS
# Type: cell-based, human
# Condition Details: Homo sapiens; SH-SY5Y neuroblastoma cell line, 72 h, mean ± SD (n = 4)
Quantity Kind: GI50 (µM)

Worked examples, 5 compounds total:
{"columns": ["Compound", "Units Label", "GI50"],
 "data": [
  ["O=C(NO)c1cccc(-c2nc3ccccc3s2)c1 [Compound 17b]", "µM", 21.4],
  ["O=C(CCCCCCC(=O)Nc1ccccc1)NO [SAHA, suberoylanilide hydroxamic acid, reference compound]", "µM", 2.9],
  ["O=C(NO)c1ccc(-c2nc3ccccc3[nH]2)cc1 [Compound 5]", "µM", 60],
  ["CCCCn1c(-c2ccc(C(=O)NO)cc2)nc2ccccc21 [Compound 6d]", "µM", 26.8],
  ["CCCn1c(-c2ccc(C(=O)NO)cc2)nc2ccccc21 [Compound 6c]", "µM", 54.7]
]}

I. O=C(NO)c1ccc(-c2nc3ccccc3o2)cc1 [Compound 9a]
II. O=C(NO)c1ccc(-c2nc3ccccc3s2)cc1 [Compound 9b]
III. Cn1c(-c2ccc(C(=O)NO)cc2)nc2ccccc21 [Compound 6a]
IV. O=C(NO)c1cccc(-c2nc3ccccc3o2)c1 [Compound 17a]
V. CCn1c(-c2ccc(C(=O)NO)cc2)nc2ccccc21 [Compound 6b]
Hey, quick one: sort these by GI50, low to high? # output: labels, in the requested order II, IV, I, V, III
(II: 2.01 µM, IV: 17.5 µM, I: 25.7 µM, V: 38.1 µM, III: 58.3 µM)

a. CCCn1c(-c2cccc(C(=O)NO)c2)nc2ccccc21 [Compound 14c]
b. CCCCn1c(-c2cccc(C(=O)NO)c2)nc2ccccc21 [Compound 14d]
Of the pair a and b , name the member with the lesser recorded GI50. Identify your pick by its label. b

====

# Assay Protocol: In vivo brain pharmacokinetic study
# Condition Details: mouse, plasma; ICR male mice, IV, 2 mg/kg, 1 h, n = 4; read-out: Plasma concentration (ng/mL) 1 h
Quantity Kind: concentration at 1 h (ng/mL)

1. O=C(CCCCCCC(=O)Nc1ccccc1)NO [SAHA, suberoylanilide hydroxamic acid, reference compound]
2. O=C(NO)c1ccc(-c2nc3ccccc3s2)cc1
Please let me know which one, 1 or 2 , has a lower measured concentration at 1 h value. Record your answer as the label of the chosen record. 1

====

# Assay Protocol: PAMPA-BBB assay
# Type: in vitro ADME
# Condition Details: PAMPA; 25 μM, pH 7.4, 4 h, 25 °C; mean ± SD, three independent experiments; read-out: Pe
Quantity Kind: Papp at 4 h, 25 μM (×10⁻⁶ cm/s)

{"columns": ["Compound", "Units Label", "Papp at 4 h, 25 μM"],
 "data": [
  ["O=C(NO)c1ccc(-c2nc3ccccc3s2)cc1", "×10⁻⁶ cm/s", 27.1]
]}

I. CC(=O)[C@H]1CC[C@H]2[C@@H]3CCC4=CC(=O)CC[C@]4(C)[C@H]3CC[C@]12C
II. O=C(CCCCCCC(=O)Nc1ccccc1)NO [SAHA, suberoylanilide hydroxamic acid, reference compound]
# return whichever of I and II has the smaller Papp at 4 h, 25 μM Identify your selection by its label. II

====

# Assay Protocol: In vivo brain pharmacokinetic study
# Condition Details: mouse, plasma; ICR male mice, IV, 2 mg/kg, 0.5 h, n = 4; read-out: Plasma concentration (ng/mL) 0.5 h
Quantity Kind: concentration at 0.5 h (ng/mL)

{"columns": ["Compound", "Units Label", "concentration at 0.5 h"],
 "data": [
  ["O=C(CCCCCCC(=O)Nc1ccccc1)NO [SAHA, suberoylanilide hydroxamic acid, reference compound]", "ng/mL", 39.2],
  ["O=C(NO)c1ccc(-c2nc3ccccc3s2)cc1 [Compound 9b]", "ng/mL", 46]
]}
